- target-system: T1, mouse CXCR4 (mouse, UniProt P70658 1-359)
- T1 construct: Full-length murine CXCR4 on transiently transfected HEK293T cells; also native on mouse lymphocytes and the EL4 line; also called murine CXCR4
- T1 sequence (P70658 whole entry): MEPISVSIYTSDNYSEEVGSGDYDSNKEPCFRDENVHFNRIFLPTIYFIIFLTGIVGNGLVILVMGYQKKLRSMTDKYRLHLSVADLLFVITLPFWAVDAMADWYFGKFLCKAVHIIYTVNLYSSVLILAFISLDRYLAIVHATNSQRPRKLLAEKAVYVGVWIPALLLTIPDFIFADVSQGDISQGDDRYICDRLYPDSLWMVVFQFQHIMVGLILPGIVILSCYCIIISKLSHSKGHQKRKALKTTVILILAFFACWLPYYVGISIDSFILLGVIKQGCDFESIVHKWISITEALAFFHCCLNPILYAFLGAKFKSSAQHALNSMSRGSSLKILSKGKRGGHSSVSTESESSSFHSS
- protocol: FMAT, hybridoma supernatant on HEK293T cells transiently overexpressing full-length mouse CXCR4
- Procedure: Supernatants collected from harvested cells were tested to assess the ability of the secreted antibodies to bind to HEK293T cells transiently overexpressing either full-length human, murine or cynomolgus monkey CXCR4. […] The product of number of positive events and fluorescence intensity was used as a measure of binding strength.
property: Count
The answer should be a number; do not append a unit.

Any idea what Count was measured for 4C1 (antibody, V domains shown, Fully human monoclonal antibody from XenoMouse hybridoma (strains XMG2 IgG2 or XMG4 IgG4, kappa/lambda); Tested as hybridoma supernatant or purified antibody; also called mAb 4C1; Mab4C1) VH: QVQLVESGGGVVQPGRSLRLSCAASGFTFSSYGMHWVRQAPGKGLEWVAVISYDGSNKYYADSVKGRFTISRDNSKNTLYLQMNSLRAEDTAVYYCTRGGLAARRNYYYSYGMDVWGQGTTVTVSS VL: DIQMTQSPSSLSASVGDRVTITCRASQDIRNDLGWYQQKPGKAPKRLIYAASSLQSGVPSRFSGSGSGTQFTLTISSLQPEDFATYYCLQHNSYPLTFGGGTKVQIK ?
5
